System: 521955-158-R2-J5-PDC complex spheroid growth, % test/control;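 note: spheroids exposed to agents for 7 days before readout; 100% = DMSO vehicle control viability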
Experiment: Anticancer human tumor 521955-158-R2-J5-PDC patient-derived pancreatic carcinoma cell line growth inhibition [Asc]
Details: second compound 0.1 µM; first compound 0.1 µM; active compounds read low

molecule	targetOfAssay	unitName	viability, T/C
C=CC(=O)N1CCN(c2nc(=O)n(-c3c(C)ccnc3C(C)C)c3nc(-c4c(O)cccc4F)c(F)cc23)C(C)C1 (stereo not drawn) + CNC(C)C(=O)NC1CN(S(=O)(=O)c2cccc(S(=O)(=O)N3CCC4CCC(C(=O)NC(c5ccccc5)c5ccccc5)N4C(=O)C(NC(=O)C(C)NC)C3)c2)CCC2CCC(C(=O)NC(c3ccccc3)c3ccccc3)N2C1=O	521955-158-R2-J5-PDC complex spheroid growth, % test/control	%	111
COc1c(OCCCN2CCOCC2)ccc2c3n(c(=NC(=O)c4cnc(N)nc4)nc12)CCN3 + Cc1c(S(C)(=O)=O)c(-c2cc(F)cc(N3CCN(c4ccc(NS(=O)(=O)c5ccc(NC(CCN6CCC(C(=O)OCCCP(=O)(O)O)CC6)CSc6ccccc6)c(S(=O)(=O)C(F)(F)F)c5)cc4)CC3)c2)c(-c2ccc(Cl)cc2)n1C(C)C	521955-158-R2-J5-PDC complex spheroid growth, % test/control	%	31.4
Cn1ncnc1[C@H]1c2n[nH]c(=O)c3cc(F)cc(c23)N[C@@H]1c1ccc(F)cc1 + CNC(C)C(=O)NC1CN(S(=O)(=O)c2cccc(S(=O)(=O)N3CCC4CCC(C(=O)NC(c5ccccc5)c5ccccc5)N4C(=O)C(NC(=O)C(C)NC)C3)c2)CCC2CCC(C(=O)NC(c3ccccc3)c3ccccc3)N2C1=O	521955-158-R2-J5-PDC complex spheroid growth, % test/control	%	56.2
